target under test: human organic cation/carnitine transporter (SLC22A5, OCTN2) (Homo sapiens)
Sequence (O76082 whole entry): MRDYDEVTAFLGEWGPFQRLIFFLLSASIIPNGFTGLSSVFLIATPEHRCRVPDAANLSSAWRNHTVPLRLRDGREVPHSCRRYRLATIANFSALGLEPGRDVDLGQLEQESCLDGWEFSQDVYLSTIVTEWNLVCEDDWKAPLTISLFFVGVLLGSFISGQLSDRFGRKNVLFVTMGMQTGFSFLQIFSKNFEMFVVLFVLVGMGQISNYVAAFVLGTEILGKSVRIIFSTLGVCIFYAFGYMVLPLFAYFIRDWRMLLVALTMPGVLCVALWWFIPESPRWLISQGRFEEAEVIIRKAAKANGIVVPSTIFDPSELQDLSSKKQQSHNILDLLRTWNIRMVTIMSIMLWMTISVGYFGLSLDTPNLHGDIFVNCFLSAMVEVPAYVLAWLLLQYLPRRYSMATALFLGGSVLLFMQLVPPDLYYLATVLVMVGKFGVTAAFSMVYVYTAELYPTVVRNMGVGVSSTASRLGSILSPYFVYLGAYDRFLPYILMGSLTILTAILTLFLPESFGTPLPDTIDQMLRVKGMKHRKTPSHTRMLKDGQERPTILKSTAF
method: OCTN2 cis-inhibition of L-carnitine uptake in OCTN2-MDCK cells
Type: cell-based
assay conditions: Ki, inhibitor concentration range 0-[…]
measured attribute: pKi
# pKi is unitless: minus log10 of the molar concentration; print number only

Ask: Look at this molecule and give its reported pKi. C[N+](C)(C)C[C@@H](O)CC(=O)[O-]
Reply: 5.05

----------
Each record here notes measured pKi.
target under test: human apical sodium-dependent transporter (SLC10A2, ASBT) (Homo sapiens)
method: ASBT cis-inhibition of taurocholate uptake in ASBT-MDCK cells
assay conditions: Ki, inhibitor concentration range 0-100 μM; mean±S.E.
Structures can show the parent of a compound that is named as a salt.
Reminder that pKi is minus the log10 of a molar concentration.

See these solved cases before continuing.
COc1ccc2c(c1)c(CC(=O)O)c(C)n2C(=O)c1ccc(Cl)cc1 [Indomethacin, indomethacin] | 4.11
CCCCNc1cc(C(=O)O)cc(S(N)(=O)=O)c1Oc1ccccc1 [Bumetanide, bumetanide] | 3.46
COC(=O)C1=C(C)NC(C)=C(C(=O)OC(C)C)C1c1cccc2nonc12 (stereo not shown) [Isradipine, isradipine] | 4.41
Cc1c(OCC(F)(F)F)ccnc1C[S+]([O-])c1nc2ccccc2[nH]1 (stereo not shown) [Lansoprazole] | 4.06

Ask: Fill in the blank: the reported pKi of CC(C)n1c(/C=C/C(O)CC(O)CC(=O)O)c(-c2ccc(F)cc2)c2ccccc21 (stereo not shown) [Fluvastatin, fluvastatin] is ____.
Reply: 4.60

Ask: And CC(C)OC(=O)CCC/C=C\C[C@@H]1[C@@H](CC[C@@H](O)CCc2ccccc2)[C@H](O)C[C@@H]1O [Latanoprost, latanoprost] ?
Reply: 4.84

Ask: Item: CCCCOc1cc(C(=O)NCCN(CC)CC)c2ccccc2n1 [Dibucaine hydrochloride, dibucaine hydrochloride]
Reply: 4.07

----------
target under test: human organic cation/carnitine transporter (SLC22A5, OCTN2) (Homo sapiens)
method: OCTN2 cis-inhibition of L-carnitine uptake in OCTN2-MDCK cells
Format: cell-based
assay conditions: Ki, inhibitor concentration range 0-200 μM
Where a name gives a salt, the structure may show the parent alone.
measured attribute: Ki (µM)
Expressed in µM, but write only the number.

Below, 2 compounds whose answers are already recorded.
COc1cccc2c1C(=O)c1c(O)c3c(c(O)c1C2=O)C[C@@](O)(C(C)=O)C[C@@H]3O[C@H]1C[C@H](N)[C@H](O)[C@H](C)O1 [Daunorubicin hydrochloride, daunorubicin hydrochloride] | 375
CC[C@]1(O)C[C@H]2CN(CCc3c([nH]c4ccccc34)[C@@](C(=O)OC)(c3cc4c(cc3OC)N(C=O)[C@H]3[C@@](O)(C(=O)OC)[C@H](OC(C)=O)[C@]5(CC)C=CCN6CC[C@]43[C@@H]65)C2)C1 [Vincristine sulfate] | 15.9

// moving on: another record for Ki
Ask: Quick check: Ki of C[N+](C)(C)C[C@@H](O)CC(=O)[O-] ?
Reply: 12.2

----------
target under test: human apical sodium-dependent transporter (SLC10A2, ASBT) (Homo sapiens)
Sequence (Q12908 1-348): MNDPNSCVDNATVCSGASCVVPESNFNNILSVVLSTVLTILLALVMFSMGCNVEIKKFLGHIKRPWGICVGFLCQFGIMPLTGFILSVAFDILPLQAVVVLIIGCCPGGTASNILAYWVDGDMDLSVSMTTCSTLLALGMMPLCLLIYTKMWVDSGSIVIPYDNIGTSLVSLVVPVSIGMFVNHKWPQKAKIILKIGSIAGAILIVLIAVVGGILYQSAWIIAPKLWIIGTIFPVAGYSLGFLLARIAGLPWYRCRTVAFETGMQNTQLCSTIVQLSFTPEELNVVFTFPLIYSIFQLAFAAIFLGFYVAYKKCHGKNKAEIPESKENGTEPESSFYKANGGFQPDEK
method: ASBT cis-inhibition of taurocholate uptake in ASBT-MDCK cells
assay conditions: Ki, inhibitor concentrations 0, 10 μM (Table 4); mean±S.E.
measured attribute: pKi
The meaning of pKi here: minus log10 of the concentration in molar units.

Ask: Any idea what its pKi is? The compound is Cc1c(OCC(F)(F)F)ccnc1C[S+]([O-])c1nc2ccccc2[nH]1 (stereo not shown)
Reply: 3.99

----------
target under test: human apical sodium-dependent transporter (SLC10A2, ASBT) (Homo sapiens)
method: ASBT cis-inhibition of taurocholate uptake in ASBT-MDCK cells
assay conditions: read-out: percent taurocholate inhibited at the highest inhibitor concentration
Where a name gives a salt, the structure may show the parent alone.
The threshold is inclusive: inhibition at 200 µM of exactly 70% counts as rule met; values below receive rule not met.

Reference set, count: 3
O=C(O)C[C@H](O)C[C@H](O)/C=C/c1c(C2CC2)nc2ccccc2c1-c1ccc(F)cc1 | rule not met
Clc1ccc(C(Cn2ccnc2)OCc2ccsc2Cl)c(Cl)c1 (stereo not shown) | rule met
CCCCOc1cc(C(=O)NCCN(CC)CC)c2ccccc2n1 [Dibucaine hydrochloride, dibucaine hydrochloride] | rule not met

Ask: Has Cc1c(OCC(F)(F)F)ccnc1C[S+]([O-])c1nc2ccccc2[nH]1 (stereo not shown) a recorded inhibition at 200 µM greater than or equal to 70%?
Reply: rule not met

Ask: Item: CC(C)OC(=O)CCC/C=C\C[C@@H]1[C@@H](CC[C@@H](O)CCc2ccccc2)[C@H](O)C[C@@H]1O
Reply: rule met

Ask: Another: CN1CCCCC1CCN1c2ccccc2Sc2ccc([S+](C)[O-])cc21 (stereo not shown) [Mesoridazine besylate]
Reply: rule not met

Ask: Follow-up item: COC(=O)C1=C(C)NC(C)=C(C(=O)OC(C)C)C1c1cccc2nonc12 (stereo not shown)
Reply: rule met

----------
target under test: human apical sodium-dependent transporter (SLC10A2, ASBT) (Homo sapiens)
method: ASBT cis-inhibition of taurocholate uptake in ASBT-MDCK cells
assay conditions: Reference Ki, from the comprehensive inhibition profile
measured attribute: Ki (µM)
Expressed in µM, but write only the number.

Reference set, count: 3
CC(C(=O)O)c1cccc(C(=O)c2ccccc2)c1 (stereo not shown) [Ketoprofen, ketoprofen] | 310
Clc1ccc(C(Cn2ccnc2)OCc2ccsc2Cl)c(Cl)c1 (stereo not shown) [Tioconazole, tioconazole] | 34.1
COC(=O)C1=C(C)NC(C)=C(C(=O)OC(C)C)C1c1cccc2nonc12 (stereo not shown) [Isradipine, isradipine] | 36.4

Now look at this one.
Ask: Which Ki is reported for this molecule? COc1ccc2c(c1)c(CC(=O)O)c(C)n2C(=O)c1ccc(Cl)cc1 [Indomethacin, indomethacin]
Reply: 86.4

----------
Ki reference
target under test: UniProt:Q12908
method: ASBT cis-inhibition of taurocholate uptake in ASBT-MDCK cells
assay conditions: Ki, inhibitor concentration range 0-100 μM; mean±S.E.
Reply with just the number (in µM).

Ask: I'd like to know its Ki. The molecule in question is N=C(N)c1ccc(OCCCCCOc2ccc(C(=N)N)cc2)cc1 [Pentamidine Isethionate, pentamidine isethionate]
Reply: 189

Ask: Same again, this time with CC(C)c1nc(N(C)S(C)(=O)=O)nc(-c2ccc(F)cc2)c1/C=C/[C@@H](O)C[C@@H](O)CC(=O)O
Reply: 118

Ask: How about this molecule: CN1CCCCC1CCN1c2ccccc2Sc2ccc([S+](C)[O-])cc21 (stereo not shown) [Mesoridazine besylate]
Reply: 59.6

Ask: Then CC(C)(C#N)c1cc(Cn2cncn2)cc(C(C)(C)C#N)c1 ?
Reply: 451

----------
target under test: human apical sodium-dependent transporter (SLC10A2, ASBT) (Homo sapiens, UniProt Q12908)
Sequence (Q12908 1-348): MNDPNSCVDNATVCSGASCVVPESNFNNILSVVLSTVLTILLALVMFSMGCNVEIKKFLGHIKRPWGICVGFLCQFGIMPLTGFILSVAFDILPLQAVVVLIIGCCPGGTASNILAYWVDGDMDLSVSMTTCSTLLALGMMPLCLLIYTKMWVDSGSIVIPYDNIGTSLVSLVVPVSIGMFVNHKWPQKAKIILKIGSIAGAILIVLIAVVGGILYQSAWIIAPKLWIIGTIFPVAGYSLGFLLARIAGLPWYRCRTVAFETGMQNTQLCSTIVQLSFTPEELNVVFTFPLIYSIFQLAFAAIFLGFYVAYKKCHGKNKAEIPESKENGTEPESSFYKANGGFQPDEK
method: ASBT cis-inhibition of taurocholate uptake in ASBT-MDCK cells
assay conditions: Ki, inhibitor concentrations 0, 5 μM (Table 2); mean±S.E.
measured attribute: pKi
As a rule, pKi stands for the negative log10 of the concentration, concentration in M.

Ask: # query: pKi | item CC(C)c1nc(N(C)S(C)(=O)=O)nc(-c2ccc(F)cc2)c1/C=C/[C@@H](O)C[C@@H](O)CC(=O)O [Rosuvastatin] | system: human apical sodium-dependent transporter (SLC10A2, ASBT) (Homo sapiens, UniProt Q12908)
Reply: 3.71

Source: paper PMC2909451
